Read-out: Pro-epidermal growth factor (Homo sapiens) (UniProt P01133)
Assay: LTEA_HepaRG_EGF: Life Technologies and Expression Analysis (LTEA) Assay for Epidermal growth factor (EGF) using HepaRG (AID 2283489)
Settings: mRNA level, 48 h; actives raise or lower the signal
Activity calls are given as the source filed them. The calls were made as follows: active = hit-call score of the fitted dose curve at least 0.9, where 1 is the maximum; inactive = score below 0.9.
# valid calls are true (1) = active, false (0) = inactive; nothing else

## Input Per the assay record, what outcome was assigned to N#CN ?
## Output false (0)

## Input For CNC(=O)Oc1ccccc1OC(C)C , what call appears in the results of this test?
## Output false (0)

## Input Check the results log: what was the call for COc1nn(CSP(=S)(OC)OC)c(=O)s1 ?
## Output false (0)

## Input Could you kindly confirm the outcome this assay logged for CC(C)(C)C(O)C(Oc1ccc(Cl)cc1)n1cncn1 (stereo not drawn) ?
## Output false (0)

## Input GET /call?item= CNC(=O)/C=C(\C)OP(=O)(OC)OC returns the recorded outcome of this test.
## Output false (0)

## Input What call does the record list for Oc1cc(Cl)ccc1Oc1ccc(Cl)cc1Cl ?
## Output false (0)

## Input What was the test verdict on CC1(C)C(C=C(Cl)Cl)C1C(=O)OC(C#N)c1ccc(F)c(Oc2ccccc2)c1 (stereo not drawn) ?
## Output true (1)

## Input Which outcome did this test record for the molecule CCOC1Oc2ccc(OS(C)(=O)=O)cc2C1(C)C (stereo not drawn) ?
## Output false (0)

## Input Assay outcome for C[C@H]1[C@H](c2ccc(Cl)cc2)SC(=O)N1C(=O)NC1CCCCC1 : what was it?
## Output false (0)

## Input Check the results log: what was the call for CCC(C)(C)C(=O)OC1=C(c2ccc(Cl)cc2Cl)C(=O)OC12CCCCC2 ?
## Output false (0)

## Input Could you please tell me the result logged for CNC(=O)CSP(=S)(OC)OC in this assay?
## Output false (0)

## Input GET /call?item= O=C(O)COc1ccc(Cl)cc1Cl returns the recorded outcome of this test.
## Output false (0)

## Input // param item: CCC(C)Nc1c([N+](=O)[O-])cc(C(C)(C)C)cc1[N+](=O)[O-] (stereo not drawn) ; yields the recorded call
## Output true (1)

## Input For this molecule, state the assay outcome: CNC(=O)Oc1cccc(N=CN(C)C)c1
## Output false (0)

## Input Field: outcome | Entry: O=[N+]([O-])/N=C1\NCCN1Cc1ccc(Cl)nc1
## Output true (1)

## Input Could you check what this test reported for O=C1c2ccccc2C(=O)N1SC(Cl)(Cl)Cl ?
## Output false (0)

## Input For COP(=S)(OC)Oc1ccc(SC)c(C)c1 , which call appears in the assay record?
## Output false (0)

## Input Assay outcome for O=S1OCC2C(CO1)C1(Cl)C(Cl)=C(Cl)C2(Cl)C1(Cl)Cl (stereo not drawn) : what was it?
## Output false (0)

## Input Please indicate how the test categorized CC(C)(C)C(O)/C(=C\c1ccc(Cl)cc1Cl)n1cncn1 (stereo not drawn) .
## Output false (0)

## Input // param item: CC(C)OC(=O)Nc1cccc(Cl)c1 ; yields the recorded call
## Output false (0)

## Input Tell me the recorded outcome of this test for O=[N+]([O-])c1c(Cl)c(Cl)c(Cl)c(Cl)c1Cl .
## Output false (0)

## Input Can you look up the reported call for O=C(O)CCCOc1ccc(Cl)cc1Cl for me?
## Output false (0)

## Input For O=C(O)C(F)(F)C(F)(F)C(F)(F)C(F)(F)C(F)(F)C(F)(F)C(F)(F)F , which call appears in the assay record?
## Output false (0)
